Tested on: c-myc in 22RV-1 cells
Test: Human c-myc ELISA assay
Assay type: cell-based
Details: Homo sapiens, 22Rv1, 18 h, read-out: Degradation of BRD4: Maximum inhibition (%) c-Myc ELISA in 22RV1 cells
Below: a set of entries, each annotated with reported Emax.
Answer format: numeric, % implied, no suffix.

Sample records with Emax:
smi	Emax (%)
Cc1ncsc1-c1ccc([C@H](C)NC(=O)[C@@H]2C[C@@H](OC(=O)CCN)CN2C(=O)[C@@H](NC(=O)c2cc3cc(O[C@H]4C[C@@H](NC(=O)C[C@@H]5N=C(c6ccc(Cl)cc6)c6c(sc(C)c6C)-n6c(C)nnc65)C4)ccc3o2)C(C)(C)C)cc1	97
Cc1ncsc1-c1ccc(CNC(=O)[C@@H]2C[C@@H](O)CN2C(=O)[C@@H](C(C)C)n2cc(-c3cccc(O[C@H](C)CNC(=O)C[C@@H]4N=C(c5ccc(Cl)cc5)c5c(sc(C)c5C)-n5c(C)nnc54)c3)cn2)cc1	39.5
Cc1ncsc1-c1ccc(CNC(=O)[C@@H]2C[C@@H](O)CN2C(=O)[C@@H](NC(=O)COCCCOCCCCCOc2ccc3c(c2)c2c(C(N)=O)cc(-c4c(C)noc4C)cc2n3Cc2ccccc2)C(C)(C)C)cc1	100

# input for lookup
Name the reported Emax value associated with the molecule `Cc1ncsc1-c1ccc(CNC(=O)[C@@H]2C[C@@H](O)CN2C(=O)[C@@H](NC(=O)COCCN2CCC(c3ccc([C@H](C)NC(=O)C[C@@H]4N=C(c5ccc(Cl)cc5)c5c(sc(C)c5C)-n5c(C)nnc54)cc3)CC2)C(C)(C)C)cc1`
93

###

Test system: c-myc in 22RV-1 cells
Experiment: Human c-myc ELISA assay
Format: cell-based
Conditions: Homo sapiens, 22Rv1, 18 h, read-out: Degradation of BRD4: Maximum inhibition (%) c-Myc ELISA in 22RV1 cells
reportedMetric: Emax

smi	reportedMetric	reading
Cc1ncsc1-c1ccc([C@H](C)NC(=O)[C@H]2C[C@H](O)CN2C(=O)[C@@H](NC(=O)COc2ccc(O[C@H]3C[C@@H](NC(=O)C[C@@H]4N=C(c5ccc(Cl)cc5)c5c(sc(C)c5C)-n5c(C)nnc54)C3)nc2)C(C)(C)C)cc1	Emax	42.2%

# input for lookup
Name the reported Emax value associated with the compound `Cc1ncsc1-c1ccc(CNC(=O)[C@@H]2C[C@H](O)CN2C(=O)[C@@H](NC(=O)COCCCOCCCOc2ccc(NC(=O)C[C@@H]3N=C(c4ccc(Cl)cc4)c4c(sc(C)c4C)-n4c(C)nnc43)cc2)C(C)(C)C)cc1`
39%

###

Below: a set of entries, each annotated with reported Emax.
Tested on: c-myc in 22RV-1 cells
Experiment: Human c-myc ELISA assay
Type: cell-based
Settings: Homo sapiens, 22Rv1, 18 h, read-out: Degradation of BRD4: Maximum inhibition (%) c-Myc ELISA in 22RV1 cells
Description: 22RV-1 cells are seeded at 30,000 cells/well at a volume of 75 μL/well in RPMI+10% FBS media in 96-well plates and grown overnight at 37 C. Cells are dosed with compounds at 4× concentration diluted in 0.4% DMSO; compounds are serially diluted 1:3 for 8-point dose curve. 25 ul of compounds is added to cells for a final concentration starting at 300 nM-0.3 nM or 1 uM-1 nM in 0.1% DMSO and incubated for 18 hrs. […] Data is analyzed and plotted using GraphPad Prism software. […]
Answer format: numeric, % implied, no suffix.

smi	Emax (%)
Cc1noc(-c2ccc([C@H](C)NC(=O)[C@@H]3C[C@@H](O)CN3C(=O)[C@@H](NC(=O)COc3ccc(O[C@H]4C[C@@H](NC(=O)C[C@@H]5N=C(c6ccc(Cl)cc6)c6c(sc(C)c6C)-n6c(C)nnc65)C4)nc3)C(C)(C)C)cc2)n1	96.4
Cc1ncsc1-c1ccc([C@H](C)NC(=O)[C@@H]2C[C@@H](O)CN2C(=O)[C@@H](NC(=O)COc2ccnc(O[C@H]3C[C@@H](NC(=O)C[C@@H]4N=C(c5ccc(Cl)cc5)c5c(sc(C)c5C)-n5c(C)nnc54)C3)c2)C(C)(C)C)cc1	95.9
Cc1ncsc1-c1ccc(CNC(=O)[C@@H]2C[C@@H](O)CN2C(=O)[C@@H](NC(=O)CCN2CCC(OCCNC(=O)C[C@@H]3N=C(c4ccc(Cl)cc4)c4c(sc(C)c4C)-n4c(C)nnc43)CC2)C(C)(C)C)cc1	19.7

Name the reported Emax value associated with the compound `Cc1ncsc1-c1ccc(CNC(=O)[C@@H]2C[C@@H](O)CN2C(=O)[C@@H](NC(=O)COCCOc2cc(-c3ccc([C@@H](C)NC(=O)C[C@@H]4N=C(c5ccc(Cl)cc5)c5c(sc(C)c5C)-n5c(C)nnc54)cc3)ccn2)C(C)(C)C)cc1`
97
